Entry source: patent US9533991B2

- subject of test: LCK (Homo sapiens, UniProt P06239)
- Sequence (P06239 whole entry, species assumed): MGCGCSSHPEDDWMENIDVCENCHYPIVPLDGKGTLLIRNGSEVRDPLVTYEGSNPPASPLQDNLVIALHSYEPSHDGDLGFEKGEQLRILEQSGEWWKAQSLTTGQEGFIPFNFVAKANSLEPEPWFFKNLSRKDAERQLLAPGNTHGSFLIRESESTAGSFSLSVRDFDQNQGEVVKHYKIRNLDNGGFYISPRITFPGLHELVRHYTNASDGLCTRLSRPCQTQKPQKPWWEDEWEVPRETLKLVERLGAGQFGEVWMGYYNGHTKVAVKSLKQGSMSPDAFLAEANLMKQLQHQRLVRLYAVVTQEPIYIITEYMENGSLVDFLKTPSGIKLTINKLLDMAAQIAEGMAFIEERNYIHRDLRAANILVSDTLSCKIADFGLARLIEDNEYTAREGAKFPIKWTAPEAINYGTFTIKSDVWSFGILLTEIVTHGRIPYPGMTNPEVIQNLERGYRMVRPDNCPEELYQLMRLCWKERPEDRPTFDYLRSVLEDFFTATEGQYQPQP
- procedure text: Inhibition of a panel of kinases: LCK
- Type: biochemical
- measurement setup: kinase panel, Table 2
Could you please report measured IC50 for the items listed next?

# count of solved cases: 5
CC#CC(=O)N1CCC[C@@H](n2nc(-c3ccc(C(=O)Nc4ncc(C)s4)cc3)c3c(N)ncnc32)C1 [Compound ID 17]; 100 to 1000 nM
CC#CC(=O)N1CC[C@@H](n2nc(-c3ccc(C(=O)Nc4cc(C(C)C)ccn4)cc3)c3c(N)ncnc32)C1 [Compound ID 4]; 100 to 1000 nM
CC#CC(=O)N1CCC[C@@H](n2nc(-c3ccc(C(=O)Nc4cc(C(C)C)ccn4)cc3)c3c(N)ncnc32)C1 [Compound ID 6]; 100 to 1000 nM
CC#CC(=O)N1CCC[C@@H](n2nc(-c3ccc(C(=O)Nc4cc(C)ccn4)cc3)c3c(N)ncnc32)C1 [Compound ID 11]; 10 to 100 nM
CC#CC(=O)N1CC[C@@H](n2nc(-c3ccc(C(=O)Nc4cc(C#N)ccn4)cc3)c3c(N)ncnc32)C1 [Compound ID 5]; 100 to 1000 nM

Items follow; give IC50 for each.
1. C=CC(=O)N1CC[C@@H](n2nc(-c3ccc(C(=O)Nc4ccccn4)cc3)c3c(N)ncnc32)C1 [Compound ID 22]
2. CC#CC(=O)N1CCC[C@@H](n2nc(-c3ccc(C(=O)Nc4cc(C#N)ccn4)cc3)c3c(N)ncnc32)C1 [Compound ID 14]
3. CC#CC(=O)N1CCC[C@@H](n2nc(-c3ccc(C(=O)Nc4nccs4)cc3)c3c(N)ncnc32)C1 [Compound ID 16]
4. Cc1ccnc(NC(=O)c2ccc(-c3nn([C@@H]4CCN(C(=O)C#CC5CC5)C4)c4ncnc(N)c34)cc2)c1 [Compound ID 8]

["100 to 1000 nM", "10 to 100 nM", "10 to 100 nM", "> 1000 nM"]

###

Recorded below: IC50, system EGFR (Homo sapiens, UniProt P00533).

Items follow; give IC50 for each.
1. Cc1ccnc(NC(=O)c2ccc(-c3nn([C@@H]4CCN(C(=O)C#CC5CC5)C4)c4ncnc(N)c34)cc2)c1
2. CC#CC(=O)N1CC[C@@H](n2nc(-c3ccc(C(=O)Nc4ccccn4)cc3)c3c(N)ncnc32)C1
3. CC#CC(=O)N1CC[C@@H](n2nc(-c3ccc(C(=O)Nc4nccs4)cc3)c3c(N)ncnc32)C1
4. CC#CC(=O)N1CC[C@@H](n2nc(-c3ccc(C(=O)Nc4cc(C(F)(F)F)ccn4)cc3)c3c(N)ncnc32)C1
5. CC#CC(=O)N1CCC[C@@H](n2nc(-c3ccc(C(=O)Nc4cc(C)ccn4)cc3)c3c(N)ncnc32)C1

["100 to 1000 nM", "100 to 1000 nM", "≤ 10 nM", "100 to 1000 nM", "10 to 100 nM"]

###

Recorded below: IC50, system UniProt:P00533.

# count of solved cases: 3
C=CC(=O)N1CC[C@@H](n2nc(-c3ccc(C(=O)Nc4ccccn4)cc3)c3c(N)ncnc32)C1; ≤ 0.01 µM
CC#CC(=O)N1CCC[C@@H](n2nc(-c3ccc(C(=O)Nc4ncc(C)s4)cc3)c3c(N)ncnc32)C1; ≤ 0.01 µM
Nc1ncnc2c1c(-c1ccc(C(=O)Nc3ccccn3)cc1)nn2[C@@H]1CCN(C(=O)C#CCO)C1; 0.01 to 0.1 µM

Items follow; give IC50 for each.
1. C=CC(=O)N1CC[C@@H](n2nc(-c3ccc(C(=O)Nc4cc(C(F)(F)F)ccn4)cc3)c3c(N)ncnc32)C1
2. CC#CC(=O)N1CC[C@@H](n2nc(-c3ccc(C(=O)Nc4cc(C)ccn4)cc3)c3c(N)ncnc32)C1
3. CCC#CC(=O)N1CC[C@@H](n2nc(-c3ccc(C(=O)Nc4cc(C)ccn4)cc3)c3c(N)ncnc32)C1

≤ 0.01 µM
> 1 µM
> 1 µM

Which IC50 value belongs to CC#CC(=O)N1CC[C@@H](n2nc(-c3ccc(C(=O)Nc4cc(C(C)C)ccn4)cc3)c3c(N)ncnc32)C1 ?
> 1 µM
